Tested on: SNB-75
Assay: NCI 60 human tumor cell line screen (SRB): SNB-75
Format: cell-based
Conditions: SNB-75, CNS, 48 hours, read-out: GI50 values (μM conc.)
Cut-off 2 µM on GI50: below means met, at or above means not met.

Q) A record lists COc1ccc(Nc2ncccc2/C=C/C(=O)c2cc(OC)c(OC)c(OC)c2)cc1 [6h] . Is its GI50 below 2 µM?
A) met

Q) In the record for COc1cc(Nc2ncccc2/C=C/C(=O)c2cc(OC)c(OC)c(OC)c2)cc(OC)c1OC [6v] , is GI50 less than 2 µM?
A) not met

Q) Problem: For the molecule COc1cc(C(=O)/C=C/c2cccnc2Nc2ccccc2)cc(OC)c1OC [6a] , is GI50 under 2 µM?
A) met

Q) Quick check: does COc1cc(C(=O)/C=C/c2cccnc2Nc2ccc(Cl)cc2)cc(OC)c1OC [6ax] have GI50 under 2 µM?
A) met

Q) Dear colleague, could you confirm whether GI50 of COc1ccc(C(=O)/C=C/c2cccnc2Nc2cc(OC)c(OC)c(OC)c2)cc1 [6z] falls below 2 µM? Thanks.
A) not met

Q) Confirm or reject: GI50 of COc1cc(/C=C/C(=O)c2cccnc2Nc2ccc(F)cc2)cc(OC)c1OC [7f] lies strictly below 2 µM
A) met

###

Tested on: SR
Assay: NCI 60 human tumor cell line screen (SRB): SR
Format: cell-based
Settings: Leukemia, 48 hours, read-out: GI50 values (μM conc.)
METRIC_NAME: GI50
Could you give the number and then its unit, please?

Q) Data request, read-out GI50, for COc1cc(/C=C/C(=O)c2cccnc2Nc2ccc(F)cc2)cc(OC)c1OC
A) 1.93 µM

Q) Request the reported GI50 associated with COc1cc(Nc2ncccc2/C=C/C(=O)c2cc(OC)c(OC)c(OC)c2)cc(OC)c1OC
A) 3.6 µM

Q) # input compound: COc1cc(C(=O)/C=C/c2cccnc2Nc2ccccc2)cc(OC)c1OC ; wanted: its GI50
A) 0.34 µM

Q) GI50 lookup needed for COc1ccc(Nc2ncccc2/C=C/C(=O)c2cc(OC)c(OC)c(OC)c2)cc1 , thanks.
A) 0.46 µM

Q) Suppose we examine the compound COc1cc(C(=O)/C=C/c2cccnc2Nc2ccc(Cl)cc2)cc(OC)c1OC ; what GI50 value has been reported?
A) 0.77 µM

Q) Requested field: GI50. Item: COc1ccc(C(=O)/C=C/c2cccnc2Nc2cc(OC)c(OC)c(OC)c2)cc1
A) 0.09 µM

###

Tested on: A549/ATCC
Assay: NCI 60 human tumor cell line screen (SRB): A549/ATCC
Assay type: cell-based
Details: Non-small cell lung, 48 hours, read-out: GI50 values (μM conc.)
Response field label takes satisfied when GI50 is strictly below 3 µM and not satisfied in all other cases.

Q) Regarding COc1cc(Nc2ncccc2/C=C/C(=O)c2cc(OC)c(OC)c(OC)c2)cc(OC)c1OC [6v] , kindly confirm whether its GI50 is beneath 3 µM.
A) not satisfied

Q) Hi there! Is GI50 for COc1cc(C(=O)/C=C/c2cccnc2Nc2ccc(Cl)cc2)cc(OC)c1OC [6ax] below 3 µM, do you know?
A) satisfied

Q) Quick check: does COc1ccc(C(=O)/C=C/c2cccnc2Nc2cc(OC)c(OC)c(OC)c2)cc1 [6z] have GI50 under 3 µM?
A) satisfied

Q) Strictly below 3 µM: is that where GI50 of COc1cc(/C=C/C(=O)c2cccnc2Nc2ccc(F)cc2)cc(OC)c1OC [7f] sits?
A) satisfied

Q) Would you kindly verify if GI50 of COc1cc(C(=O)/C=C/c2cccnc2Nc2ccccc2)cc(OC)c1OC [6a] is strictly less than 3 µM?
A) satisfied
